# target_or_system: Ribose-5-phosphate isomerase B (Mycobacterium tuberculosis, UniProt P9WKD7)
# Sequence (P9WKD7 whole entry): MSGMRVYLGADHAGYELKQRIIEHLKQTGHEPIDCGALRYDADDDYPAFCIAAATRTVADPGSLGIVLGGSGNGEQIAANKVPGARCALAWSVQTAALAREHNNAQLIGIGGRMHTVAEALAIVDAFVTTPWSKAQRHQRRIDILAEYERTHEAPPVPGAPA
# test_description: Competitive inhibition of Mycobacterium tuberculosis RPIB using D-ribose-5-phosphate as substrate assessed as inhibition constant by spectrophotometric analysis
experimental_readout: Ki
Returns: string containing the numeric result and its unit.

Which Ki is reported with Ribose-5-phosphate isomerase B (Mycobacterium tuberculosis, UniProt P9WKD7) for this entry: O=C(O)[C@@H](O)[C@@H](O)[C@@H](O)COP(=O)(O)O (single isomer, unassigned) ?
9 µM

* * *

# target_or_system: Ribose-5-phosphate isomerase B (Escherichia coli (strain K12), UniProt P37351)
# Sequence (P37351 whole entry): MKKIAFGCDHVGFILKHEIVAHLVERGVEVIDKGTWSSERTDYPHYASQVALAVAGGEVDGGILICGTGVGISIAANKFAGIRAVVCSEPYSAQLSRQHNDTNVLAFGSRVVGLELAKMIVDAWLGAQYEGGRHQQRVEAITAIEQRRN
# test_description: Competitive inhibition of Escherichia coli RPIB using D-ribose-5-phosphate as substrate
pIC50: −log10 of the molar value.
// false strictly below 3 in pIC50; true otherwise

Answer whether pIC50 of O=S(=O)(O)CC[C@H]1OC(O)[C@H](O)[C@@H]1O (some centres not stated) is greater than or equal to 3.
true

What would you report for O=S(=O)(O)OC[C@H]1OC(O)[C@H](O)[C@@H]1O (some centres not stated) ?
true

What would you report for O=P(O)(O)CC[C@H]1OC(O)[C@H](O)[C@@H]1O (some centres not stated) ?
false

What would you report for CC(C(C(=O)O)C(=O)O)[C@@H](O)[C@@H](O)[C@@H](O)CCP(=O)(O)O (some centres not stated) ?
false

What would you report for CC(C(C(=O)O)C(=O)O)[C@@H](O)[C@@H](O)[C@@H](O)CCC(=O)O (some centres not stated) ?
false

What would you report for O=C(O)C(C[C@H]1OC(O)[C@H](O)[C@@H]1O)C(=O)O (some centres not stated) ?
false

What would you report for O=C(O)[C@@H](O)[C@@H](O)[C@@H](O)COP(=O)(O)O (single isomer, unassigned) ?
false

These entries and their values trace back to ChEMBL document CHEMBL5579804.
